Molecular target: human NCX1 (Homo sapiens, UniProt P32418)
Construct: expressed in transfected cells
Test: Inhibition of Ca2+ influx into cells (NCX1 reverse mode), FLIPR Fluo-4 assay
Type: cell-based
Settings: inhibition of NCX1 in reverse mode (Ca2+ influx into cells); read-out: NCX1rv IC50
MEASUREMENT_TYPE: IC50 (nM)

[[record]]
molecule = "CCn1nccc1CNC(=O)C1CCC(Oc2ccc3c(c2)CCC(c2cccc(F)c2OC)O3)CC1 (stereo not shown)"
tested_target = "human NCX1 (Homo sapiens, UniProt P32418)"
observed = 400

[[record]]
molecule = "Cc1ccccc1C1CCc2cc(OC3CCC(NC4CC4)CC3)ccc2O1 (stereo not shown)"
tested_target = "human NCX1 (Homo sapiens, UniProt P32418)"
observed = 1500

[[record]]
molecule = "COC(=O)CNC(=O)C1CCC(Oc2ccc3c(c2)CCC(c2ccccc2)O3)CC1 (single isomer, unassigned; stereoisomer 1) [compound 91]"
tested_target = "human NCX1 (Homo sapiens, UniProt P32418)"
observed = 400

[[record]]
molecule = "CC(C)N1CCC(CNC2CCC(Oc3ccc4c(c3)CCC(c3ccccc3)O4)CC2)CC1 (stereo not shown)"
tested_target = "human NCX1 (Homo sapiens, UniProt P32418)"
observed = 2100

